All values here come from patent US5210193A.

Test system: Staphylococcus epidermidis CMC 83-135
test name: in vitro antibacterial MIC, agar plate dilution
Format: cell-based
test settings: CMC83135, 18 hours, 35° C., read-out: MIC
Some molecules, each annotated with its measured MIC.

These recorded examples may help you get a feel for the data.
molecule	MIC
CN1CCN(c2cc3c(cc2F)c(=O)c(C(=O)O)cn3C2CC2)CC1c1ccsc1 (centres unmarked) [Example 66]	0.06 µg/mL
O=C(O)c1cn(C2CC2)c2cc(N3CCNC(c4ccco4)C3)c(F)cc2c1=O (centres unmarked) [Example 62]	0.03 µg/mL
CCn1cc(C(=O)O)c(=O)c2cc(F)c(N3CCNC(c4ccc(C)s4)C3)cc21 (centres unmarked) [Example 37]	0.5 µg/mL
CCn1cc(C(=O)O)c(=O)c2cc(F)c(N3CCNC(c4ccsc4)C3)cc21 (centres unmarked) [Example 30]	0.25 µg/mL
CCn1cc(C(=O)O)c(=O)c2cc(F)c(N3CCNC(CF)C3)c(F)c21 (single isomer, unassigned; (-)) [Example 64]	0.25 µg/mL

Sample CCn1cc(C(=O)O)c(=O)c2cc(F)c(N3CCN(C)C(c4sc5ccccc5c4C)C3)cc21 (centres unmarked) [Example 54] — what was its MIC?
> 256 µg/mL

Please report the recorded MIC for CCn1cc(C(=O)O)c(=O)c2cc(F)c(N3CCNC(CF)C3)c(F)c21 (racemic) [Example 63] .
0.5 µg/mL

Value lookup for MIC; key = CCn1cc(C(=O)O)c(=O)c2c(F)c(F)c(N3CCN(C)CC3)c(F)c21 [Example 85]
2 µg/mL

Entry under review: CCn1cc(C(=O)O)c(=O)c2cc(F)c(N3CCN(C)CC3)c(F)c21 [Example 61] . Reported MIC?
0.25 µg/mL

Return reported MIC; argument: CCn1cc(C(=O)O)c(=O)c2cc(F)c(N3CCNC(CNC)C3)cc21.Cl.Cl (centres unmarked) [Example 53]
2 µg/mL

# input molecule: CCn1cc(C(=O)O)c(=O)c2c(F)c(F)c(N3CCSCC3)c(F)c21 [Example 89] ; wanted: its MIC
0.5 µg/mL

Report MIC for CCCCCCCCCCCCOCC1CN(c2cc3c(cc2F)c(=O)c(C(=O)O)cn3CC)CCN1C (centres unmarked) [Example 75] please.
> 256 µg/mL

* * *

Test system: Serratia marcescens IO 83-63
Where a name gives a salt, the structure may show the parent alone.
measurement type: MIC (µg/mL)
Give the value in µg/mL but do not write µg/mL after it.

Record excerpt, results attached:
compound	unit tag	MIC
O=C(O)c1cn(C2CC2)c2cc(N3CCNC(c4ccco4)C3)c(F)cc2c1=O (stereo not drawn) [Example 62]	µg/mL	1
O=C(O)c1cn(C2CC2)c2cc(N3CCNC(c4ccoc4)C3)c(F)cc2c1=O (stereo not drawn) [Example 92]	µg/mL	1
O=C(O)c1cn(C2CC2)c2cc(N3CCNC(C4CC4)C3)c(F)cc2c1=O (stereo not drawn) [Example 96]	µg/mL	0.25
O=C(O)c1cn(C2CC2)c2cc(N3CCNC(CF)C3)c(F)cc2c1=O (stereo not drawn) [Example 131]	µg/mL	0.5
O=C(O)c1cn(C2CC2)c2cc(N3CCNC(c4ccsc4)C3)c(F)cc2c1=O (stereo not drawn) [Example 98, monohydrochloride]	µg/mL	1

Look at this compound and give its reported MIC. CN1CCN(c2c(F)c(F)c3c(=O)c(C(=O)O)cn(C4CC4)c3c2F)CC1 [Example 111]
0.25

For the compound shown here, CCn1cc(C(=O)O)c(=O)c2cc(F)c(N3CCNC(c4ccoc4)C3)cc21 (stereo not drawn) [Example 94] , give the reported MIC.
1

* * *

System: Streptococcus faecalis ATTC 29212
test name: in vitro antibacterial MIC, agar plate dilution
Type: cell-based
test settings: Enterococcus faecalis, ATTC29212, 18 hours, 35° C., read-out: MIC
measurement type: MIC

For orientation, consider the following solved cases.
compound	measurement type	observed
CCn1cc(C(=O)O)c(=O)c2cc(F)c(N3CCNC(CF)C3)cc21 (centres unmarked) [Example 24]	MIC	2 µg/mL
CCn1cc(C(=O)O)c(=O)c2cc(F)c(N3CCNC(c4cc(Cl)sc4Cl)C3)cc21 (centres unmarked) [Example 51]	MIC	32 µg/mL
CCn1cc(C(=O)O)c(=O)c2cc(F)c(N3CCNC(c4cc5ccccc5o4)C3)cc21 (centres unmarked) [Example 46]	MIC	1 µg/mL
CCn1cc(C(=O)O)c(=O)c2cc(F)c(N3CCN(C)C(c4cc5cc(Cl)ccc5o4)C3)cc21 (centres unmarked) [Example 55]	MIC	> 256 µg/mL
CCn1cc(C(=O)O)c(=O)c2cc(F)c(N3CCN(C)CC3)c(F)c21 [Example 61]	MIC	2 µg/mL

Form field: reported MIC of CCCCCCOCC1CN(c2cc3c(cc2F)c(=O)c(C(=O)O)cn3CC)CCN1C (centres unmarked) [Example 78]
16 µg/mL

So what's the measured MIC for this one? O=C(O)c1cn(C2CC2)c2cc(N3CCNC(c4ccsc4)C3)c(F)cc2c1=O (centres unmarked) [Example 60]
< 0.12 µg/mL

Consider the compound CCn1cc(C(=O)O)c(=O)c2cc(F)c(N3CCNC(c4ccsc4)C3)cc21 (centres unmarked) [Example 30] and give its measured MIC.
4 µg/mL

* * *

Tested on: Staphylococcus aureus VGH 84-45
test name: in vitro antibacterial MIC, agar plate dilution
Type: cell-based
test settings: Staphylococcus aureus, VGH8445, 18 h, 35° C., read-out: MIC
Each entry below carries its reported MIC.
Provide the reading as a plain figure in µg/mL.

Please review the entries below; each comes with its answer.
compound	measurement type	observed
CCn1cc(C(=O)O)c(=O)c2cc(F)c(N3CCNC(CF)C3)c(F)c21 (racemic) [Example 63]	MIC	0.25
CCn1cc(C(=O)O)c(=O)c2cc(F)c(N3CCNC(c4ccc(C)s4)C3)cc21 (stereo not shown) [Example 37]	MIC	0.12
CCn1cc(C(=O)O)c(=O)c2cc(F)c(N3CCN(C)C(CF)C3)c(F)c21 (racemic) [Example 113]	MIC	0.25
CCn1cc(C(=O)O)c(=O)c2c(F)c(F)c(N3CCNC(C)C3)c(F)c21 (stereo not shown) [Example 91]	MIC	2
COCC1CN(c2cc3c(cc2F)c(=O)c(C(=O)O)cn3C2CC2)CCN1 (stereo not shown) [Example 81]	MIC	0.12

Item O=C(O)c1cn(C2CC2)c2cc(N3CCNC(c4ccccn4)C3)c(F)cc2c1=O (stereo not shown) [Example 128] with Staphylococcus aureus VGH 84-45 - MIC?
0.06

Can you look up MIC on Staphylococcus aureus VGH 84-45 for CCn1cc(C(=O)O)c(=O)c2cc(F)c(N3CCN(C)CC3)c(F)c21 [Example 61] ?
0.12

Query for Staphylococcus aureus VGH 84-45: what MIC does the record show for CCn1cc(C(=O)O)c(=O)c2c(F)c(F)c(N3CCN(C)CC3)c(F)c21 [Example 85] ?
1

# value lookup — system Staphylococcus aureus VGH 84-45, readout MIC, item O=C(O)c1cn(C2CC2)c2cc(N3CCNC(C4CC4)C3)c(F)cc2c1=O (stereo not shown) [Example 96]
0.06

Give Staphylococcus aureus VGH 84-45 MIC for O=C(O)c1cn(-c2ccc(F)cc2)c2cc(N3CCNC(COc4ccccc4)C3)c(F)cc2c1=O (stereo not shown) [Example 84]
0.25

* * *

Catalogue of MIC values
Tested on: Proteus rettgeri IO 83-21
test name: in vitro antibacterial MIC, agar plate dilution
Format: cell-based
test settings: Providencia rettgeri, IO8321, 18 h, 35° C., read-out: MIC
Quick reminder: number only, in µg/mL, skip the unit.

compound	observed
O=C(O)c1cn(C2CC2)c2cc(N3CCNC(c4ccccn4)C3)c(F)cc2c1=O (stereo not shown) [Example 128]	1

// fetch Proteus rettgeri IO 83-21 MIC for O=C(O)c1cn(C2CC2)c2cc(N3CCNC(c4ccco4)C3)c(F)cc2c1=O (stereo not shown) [Example 62]
0.25

// map O=C(O)c1cn(C2CC2)c2cc(N3CCNC(c4ccoc4)C3)c(F)cc2c1=O (stereo not shown) [Example 92] to recorded MIC (system: Proteus rettgeri IO 83-21)
0.5

Request: MIC, test system Proteus rettgeri IO 83-21, entry CCn1cc(C(=O)O)c(=O)c2cc(F)c(N3CCNC(c4cccnc4)C3)cc21 (stereo not shown) [Example 122]
4

* * *

Tested on: Staphylococcus aureus VGH 84-47
test name: in vitro antibacterial MIC, agar plate dilution
Format: cell-based
test settings: Staphylococcus aureus, VGH8447, 18 h, 35° C., read-out: MIC
Values of MIC strictly less than 0.1 µg/mL map to fulfilled, and values of at least 0.1 µg/mL map to not fulfilled.

Illustrative cases are given below, each with its answer.
molecule	label class
CCn1cc(C(=O)O)c(=O)c2cc(F)c(N3CCNC(c4cccnc4)C3)cc21 (stereo not drawn)	not fulfilled
O=C(O)c1cn(C2CC2)c2cc(N3CCNC(CF)C3)c(F)cc2c1=O (stereo not drawn)	not fulfilled
O=C(O)c1cn(C2CC2)c2cc(N3CCNC(c4ccco4)C3)c(F)cc2c1=O (stereo not drawn)	fulfilled
CCn1cc(C(=O)O)c(=O)c2cc(F)c(N3CCNC(c4ccncc4)C3)c(F)c21 (stereo not drawn)	not fulfilled
CCn1cc(C(=O)O)c(=O)c2cc(F)c(N3CCNC(c4ccncc4)C3)cc21 (stereo not drawn)	not fulfilled

Shifting focus to the molecule that follows.
Strictly below 0.1 µg/mL: is that where MIC of `CN1CCN(c2c(F)c(F)c3c(=O)c(C(=O)O)cn(C4CC4)c3c2F)CC1` sits?
not fulfilled
